System: OVCAR-5
Assay: NCI 60 growth inhibition
Type: cell-based, human
Conditions: Homo sapiens; OVCAR-5, Ovarian Cancer, Table 2
Listing of recorded log10 of GI50 by entry.
A value of 2 here means GI50 of 100 in nM, since values are log10.

Worked examples follow.
• C=C1C(=O)O[C@H]2[C@H]1CC/C(Cn1cc(-c3cc(C(F)(F)F)cc(C(F)(F)F)c3)nn1)=C\CC[C@@]1(C)O[C@@H]21 = 3.04
• C=C1C(=O)O[C@H]2[C@H]1CC/C(Cn1cc(CCC)nn1)=C\CC[C@@]1(C)O[C@@H]21 = 4.15
• C=C1C(=O)O[C@H]2[C@H]1CC/C(Cn1cc(-c3ccc(OC)cc3)nn1)=C\CC[C@@]1(C)O[C@@H]21 = 3.23
• C=C1C(=O)O[C@H]2[C@H]1CC/C(Cn1cc(-c3cccc(Cl)c3)nn1)=C\CC[C@@]1(C)O[C@@H]21 = 3.08
• C=C1C(=O)O[C@H]2[C@H]1CC/C(Cn1cc(-c3ccccc3)nn1)=C\CC[C@@]1(C)O[C@@H]21 = 3.76

*Q* Please indicate recorded log10 of GI50 of C=C1C(=O)O[C@H]2[C@H]1CC/C(Cn1cc(-c3ccc(F)cc3)nn1)=C\CC[C@@]1(C)O[C@@H]21 measured with OVCAR-5.
*A* 3.17

Source of measurements: patent US10428082B2
